Assay: M. tuberculosis H37Rv growth inhibitors, H37Rv strain (AID 1626);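 also: bacteria incubated seven days before Alamar blue readout; 0% = bacteria only wells and 100% = bacteria with antibiotic wells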
Details: stronger effect = higher value, concentration not given here
The campaign covered roughly 220,000 compounds. About 2,000 (0.91%) were called active. Not shown: some 2% with an inconclusive outcome. Only a sample is shown. Potency and affinity values are given separately.
Entries annotated with measured inhibition

Please review the entries below; each comes with its answer.
COc1ccc(-c2nn(-c3ccccc3C)cc2CNC(C)c2cn(C)nc2C)cc1F (stereo unspecified) | -2.3% (inactive)
O=C(O)CCC(=O)NN1C(=O)c2ccccc2NC1c1ccco1 (stereo unspecified) | -6.39% (inactive)
CCOCCOC(=O)c1ccc(-n2cnc(C)n2)nc1 | 1.52% (inactive)

Quick one: inhibition for COc1cc(C(=O)OCC(=O)NC2CCS(=O)(=O)C2)c([N+](=O)[O-])cc1OC (stereo unspecified) ? -0.03% (inactive)

May I ask what inhibition has been recorded for CCC(Oc1ccccc1)C(=O)N1CCN(c2ccccn2)CC1 (stereo unspecified) ? 0.51% (inactive)

Which inhibition value belongs to "O=C(COC(=O)Cn1cnc2ccccc21)NCCc1ccc(Cl)cc1" ? -3.57% (inactive)

Field request: inhibition | item: "COc1cccc(OC)c1C(=O)NC(=S)Nc1ccc2c(c1)OCCO2" 7.64% (inactive)

Consider the compound "O=C(Nc1nc(-c2ccc(S(=O)(=O)N3CCCC3)cc2)cs1)c1ccco1" and give its measured inhibition. 7.57% (inactive)

Recorded inhibition for "N#Cc1nc(-c2ccc(OCc3ccccc3)cc2)oc1NCCCn1ccnc1" , please? 4.85% (inactive)

Which measured inhibition value corresponds to "COc1ccc(-n2c(=S)[nH]c3cc(C(=O)NCCCN4CCCC4=O)ccc3c2=O)cc1OC" ? -1.47% (inactive)

Looking for the measured inhibition of "CC1CCN(CCC(=O)NN)CC1" , can you help? 1.23% (inactive)
